Ref: PubChem BioAssay

Recorded inhibition, one value per entry.
Assay: inhibitors of E-selectin induction by TNFa, primary screen, imaging, HUVEC, immunofluorescence, MLSMR starter and 10KST1 sets (AID 487);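 also: signal is fraction of cell area covered by stained E-selectin grains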
Conditions: HUVEC TNFalpha-induced E-selectin immunofluorescence imaging, at 2 µM; hits give high values
The source made the active and inactive calls.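 The calls were made as follows: active = visually confirmed hit in the image check and inhibition above 20%; inconclusive = visually confirmed hit but inhibition not above 20%; inactive = no visual hit in the image check.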

{"Compound": "COc1ccccc1-n1c(=O)c2c3c(sc2n2c(SC(C)C)nnc12)CCC3", "inhibition": "-68% (inactive)"}
{"Compound": "O=C(Nc1ccc(Cl)cn1)C1CCCN1S(=O)(=O)c1ccccc1 (stereo not drawn)", "inhibition": "-101% (inactive)"}
{"Compound": "Cc1cc(=O)oc(C)c1C(=O)N[C@@H]1CCCCNC1=O", "inhibition": "-137% (inactive)"}
{"Compound": "CN(C)c1ccc(C=NCC2(O)CCOC(C)(C)C2)cc1 (stereo not drawn)", "inhibition": "-145% (inactive)"}
{"Compound": "O=C(c1cccc(Cl)c1)N1CCN(C(=O)c2ccccc2F)CC1", "inhibition": "-357% (inactive)"}
{"Compound": "C=CCOC(=O)C1=C(C)OC(N)=C(C#N)C1c1ccoc1 (stereo not drawn)", "inhibition": "-24.3% (inactive)"}
{"Compound": "COc1ccc(-c2cc(=O)[nH]c(=O)[nH]2)cc1", "inhibition": "-269% (inactive)"}
{"Compound": "CC(C)c1nc(NCC2CCCO2)c(C#N)c2c1COC(C)(C)C2 (stereo not drawn)", "inhibition": "-236% (inactive)"}
{"Compound": "Cc1cc(C)n(S(=O)(=O)Cc2ccccc2)n1", "inhibition": "-49.2% (inactive)"}
{"Compound": "N#CC12CCCCC1CC1CCCCC1(C#N)N2Cc1cccnc1 (stereo not drawn)", "inhibition": "3.8% (inactive)"}
{"Compound": "Cn1c(=O)c2c(nc(NCc3ccc4c(c3)OCO4)n2Cc2ccccc2F)n(C)c1=O", "inhibition": "-161% (inactive)"}
{"Compound": "COC(=O)CN(c1nc(C)cc(OC)n1)S(=O)(=O)c1ccccc1", "inhibition": "-82.4% (inactive)"}
{"Compound": "CCOC(=O)c1[nH]c2ccc(OC)cc2c1NC(=O)CCN1CCC(C)CC1", "inhibition": "-54.8% (inactive)"}
{"Compound": "CC1(C)Cc2c(sc3c2C2=NCCN2C=N3)CO1", "inhibition": "-54.1% (inactive)"}
{"Compound": "Cc1ccc(S(=O)(=O)N2CCN(c3nc(C(C)C)c4c(c3C#N)CC(C)(C)OC4)CC2)cc1", "inhibition": "-19.5% (inactive)"}
{"Compound": "COc1ccc2c(=O)c(-c3nc(C)cs3)coc2c1", "inhibition": "-220% (inactive)"}
{"Compound": "Cc1ccc(-c2nn3c(-c4cccc(Cl)c4)nnc3s2)cc1", "inhibition": "-115% (inactive)"}
{"Compound": "CSc1nc(NC(C)=O)nc(C)c1Cl", "inhibition": "33.2% (inactive)"}
{"Compound": "CCOC(=O)c1n[nH]c2ccccc12", "inhibition": "-168% (inactive)"}
{"Compound": "CCCn1c(=O)c2[nH]c(C3CCCC3)nc2n(CCC)c1=O", "inhibition": "-83.5% (inactive)"}
{"Compound": "CN(C)CCOc1ccccc1Cc1ccccc1", "inhibition": "-66.7% (inactive)"}
{"Compound": "CSc1nc(O)c(Cc2ccccc2)c(=O)[nH]1", "inhibition": "23.6% (inactive)"}
{"Compound": "Fc1ccc2[nH]c3c(N4CCN(c5ccccc5)CC4)ncnc3c2c1", "inhibition": "-109% (inactive)"}
{"Compound": "CC(C)CNC(=O)c1c(N)n(/N=C/c2ccccn2)c2nc3ccccc3nc12", "inhibition": "-33.4% (inactive)"}
{"Compound": "c1ccc(OCc2nn3c(-c4ccco4)nnc3s2)cc1", "inhibition": "-139% (inactive)"}
{"Compound": "Nc1nnnn1CC(=O)OCc1cccc(Br)c1", "inhibition": "-43.6% (inactive)"}
{"Compound": "CC(COc1ccccc1)NC(C)C(O)c1ccc(O)cc1 (stereo not drawn)", "inhibition": "-135% (inactive)"}
{"Compound": "Oc1ccc(/C=C/c2cc(O)cc(O)c2)cc1", "inhibition": "-78% (inactive)"}
{"Compound": "CCCOc1ccc(C(C)=O)cc1CSCCC#N", "inhibition": "-186% (inactive)"}
{"Compound": "O=C(NCC(F)(F)F)N1CCOCC1", "inhibition": "-23.9% (inactive)"}
{"Compound": "CCN(CC)CCNC(=O)c1ccccc1N", "inhibition": "-314% (inactive)"}
{"Compound": "N#Cc1c(N)nc(SCC(=O)NCCc2ccccc2)c(C#N)c1-c1cccs1", "inhibition": "19.3% (inactive)"}
{"Compound": "Cc1ccc(/C(O)=C2/C(=O)C(=O)N(Cc3ccco3)C2c2cccs2)cc1 (stereo not drawn)", "inhibition": "-40.6% (inactive)"}
{"Compound": "CCCN(CCC)C(=O)CC(c1ccc(F)cc1)c1ccco1 (stereo not drawn)", "inhibition": "-37.9% (inactive)"}
{"Compound": "C=C(C)CSC1=C(C#N)C(c2ccsc2)CC(=O)N1 (stereo not drawn)", "inhibition": "8.3% (inactive)"}
{"Compound": "c1ccc(-c2nnc(OCCN3CCOCC3)c3ccccc23)cc1", "inhibition": "-85.3% (inactive)"}
{"Compound": "CCOCCN(C(=O)COC)c1cccc(OC)c1", "inhibition": "19.2% (inactive)"}
{"Compound": "CN1CCN(C2=Nc3ccccc3Oc3ccc(Cl)cc32)CC1", "inhibition": "-3.4% (inactive)"}
{"Compound": "CN(C)CC(O)COc1ccc(-c2ccc(C#N)cc2)cc1 (stereo not drawn)", "inhibition": "-19.8% (inactive)"}
{"Compound": "Oc1c(C=Nc2cccnc2)sc2ccccc12", "inhibition": "-17% (inactive)"}
{"Compound": "COC(=O)C(NC(C)=O)(Nc1ccc(Br)cc1)C(=O)OC", "inhibition": "-127% (inactive)"}
{"Compound": "COc1cccc(-c2nc(NCc3ccco3)c3ccccc3n2)c1O", "inhibition": "-7.1% (inactive)"}
{"Compound": "O=C1CC(NCc2ccc3c(c2)OCO3)C(=O)N1Cc1ccc2c(c1)OCO2 (stereo not drawn)", "inhibition": "-127% (inactive)"}
{"Compound": "CCCOc1ccc(/C(O)=C2/C(=O)C(=O)N(CCCN3CCOCC3)C2c2ccncc2)cc1 (stereo not drawn)", "inhibition": "-151% (inactive)"}
{"Compound": "Cc1ccc(C2C(C(=O)c3cc4ccccc4o3)=C(O)C(=O)N2CCCN(C)C)cc1 (stereo not drawn)", "inhibition": "-30.5% (inactive)"}
{"Compound": "O/N=C1\\CCc2cc(Cl)ccc21", "inhibition": "-24.4% (inactive)"}
{"Compound": "Cc1cc(C)n(-c2nnc(C)n2/N=C/c2ccccc2F)n1", "inhibition": "-75.7% (inactive)"}
{"Compound": "Cc1nc(-c2c(-c3ccc(O)cc3O)noc2C(F)(F)F)cs1", "inhibition": "-135% (inactive)"}
